subject.of.test: Streptavidin (Streptomyces avidinii) (UniProt P22629)
Sequence (P22629 whole entry, looked up): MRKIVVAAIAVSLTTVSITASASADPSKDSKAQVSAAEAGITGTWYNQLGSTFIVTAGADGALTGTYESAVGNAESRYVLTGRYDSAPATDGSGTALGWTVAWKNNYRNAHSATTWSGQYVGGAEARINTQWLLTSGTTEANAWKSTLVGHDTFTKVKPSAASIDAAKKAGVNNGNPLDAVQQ
assay.method.text: compounds binding control protein streptavidin – biophysical, small-molecule microarray, 635/667 nm fluorescence, artefact control for SMM compound annotation, primary screen (AID 1147);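 further: signal reflects streptavidin binding to arrayed compounds as a control protein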
applied.conditions: higher = more signal
Listing: composite z-score of selected compounds

Examples from the recorded data:
compound	composite z-score
O=C1O[C@H](Cc2ccccc2)[C@@H]2[C@H]3C=CCCC=C3CN2[C@H]1Cc1ccc(O)cc1	-0.0955
C=CCC(OC(C)=O)[C@@H]1[C@@H](N(Cc2cccc3ccccc23)C(=O)c2ccc(-c3ccccc3)cc2)c2cc(OCCCO)ccc2N1C(=O)Cc1ccc2ccccc2c1 (some centres undefined)	0.911
COc1cc(CO)cc(I)c1O[C@H]1C=C(C(=O)NCCO)C[C@@H]2O[C@H]12	0.717
O=C1O[C@H](c2ccccc2)[C@H](c2ccccc2)N2[C@H]1[C@@H](C(=O)O)[C@]1(C(=O)Nc3ccc(C#CCCO)cc31)[C@H]2c1ccc(OCCO)cc1	0.468
O=C1O[C@@H](c2ccccc2)[C@@H](c2ccccc2)N2[C@@H](c3ccccc3OCCO)[C@]3(C(=O)Nc4ccc(C#CCCO)cc43)[C@@H](C(=O)NC[C@H](O)c3ccccc3)[C@H]12	1.63

Reported composite z-score, compound C=CC[C@@]12N=C(c3ccc(OCCCO)cc3)O[C@@H]1c1ccccc1N(CCC)C2=O : ____
-0.0328

Next entry: COC(=O)c1cccc([C@H]2OC(=CC(=O)OC(C)C)C[C@@H](c3cccc(C(=O)OC)c3)O2)c1
1.21

Next entry: COc1ccc(C(=O)Nc2ccc3c(c2)[C@@]2(O[C@H](CCO)[C@@H]([Si](C)(C)c4ccc(OC)cc4)[C@@H]2C)C(=O)N3Cc2ccccc2)cc1
0.0576

Next entry: CC(C)(C)N1CC=CC23O[C@@H]4C=CCOC(=O)[C@@H]4[C@H]2C(=O)N(CCO)[C@@H]3C1=O (some centres undefined)
-1.61

Next entry: COc1ccc(C(=O)Nc2ccc(CN3C(=O)[C@@]4(O[C@@H](CCn5cc(CCO)nn5)[C@H]([Si](C)(C)c5ccc(OC)cc5)[C@H]4C)c4ccccc43)cc2)cc1
0.421

###

assay.method.text: growth modulation of vineyard yeast isolate – strain RM11-1a, OD600, basal, 24 h, primary screen (AID 1177);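 further: cultures grown under basal conditions with no added stressor; test concentration not given here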
applied.conditions: S. cerevisiae RM11-1a growth, OD600, 24 h; higher = more signal, called active from +8 up or from −8 down
reported.metric: z-score
Lab note: write the figure by itself, no unit.

Examples from the recorded data:
compound	z-score
C=CCC(OC(C)=O)[C@@H]1[C@@H](N(Cc2cc3ccccc3o2)C(=O)Cc2ccc(OC)cc2)c2cc(OCCCO)ccc2N1C(=O)c1ccc2ccccc2n1 (stereo partly specified)	-0.266
CCCC=C(CCC)[C@@H](NC(=O)c1ccc(C(F)(F)F)cc1)c1ccc(C(F)(F)F)cc1	2.66
C=CCOC(=O)[C@@H]1[C@H]2C(=O)O[C@H](c3ccccc3)[C@H](c3ccccc3)N2[C@H](c2ccc(OCCOC(=O)[C@H]3C[C@H]4C(=O)N5CCC[C@H]5C(=O)N4[C@H]3c3cccc(OCCO)c3)cc2)[C@@]12C(=O)Nc1ccc(I)cc12	1.89
CC1CC/C=C\[C@H]2OC34C=CCN(Cc5ccccc5)C(=O)[C@H]3N(CCCCCCO)C(=O)[C@@H]4C2C(=O)O1 (stereo partly specified)	-0.38
O=C1C[C@]2(c3ccc([N+](=O)[O-])cc3)C(=O)N(C3CC3)c3cc(CO)ccc3[C@H]2N1C1CCCCC1	0.3

Turning now to a further compound:
Reported z-score, compound Cc1ccc(S[C@]2(C(=O)NCCCN(C)C)CC(=O)N(Cc3ccccc3C(F)(F)F)[C@@H]2c2ccc(CO)cc2I)cc1 : ____
-1.55

###

assay.method.text: probe aInhba binding on compound microarray – biochemical, small-molecule microarray, 635/667 nm fluorescence, primary screen (AID 1148);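 further: score merges 667nm spot fluorescence with signal-to-noise for antibody binding to printed compounds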
applied.conditions: higher = more signal
reported.metric: composite z-score
Lab note: write the figure by itself, no unit.

compound	composite z-score
O=C1C2C=CC(C(O)c3cccs3)N(Nc3ccc([N+](=O)[O-])cc3)C2C(=O)N1c1ccccc1 (stereo not drawn)	-0.0791
Cc1ccc(S[C@]2(C(=O)NCc3ccccc3)CC(=O)N(Cc3ccccc3C(F)(F)F)[C@@H]2c2ccc(CO)cc2)cc1	0.0391
CC(C)=CCCC(C)=CC(O)C1C=CC2C(=O)NC(=O)C2N1Nc1ccc(Cl)cc1Cl (stereo not drawn)	-0.0035
COC(=O)[C@@]1(Cc2ccc(OC)cc2)[C@H]2c3cc(C(=O)N4CCCC4)n(Cc4ccc(Cl)c(C(F)(F)F)c4)c3C[C@H]2CN1C(=O)c1ccccc1	0.728
CCCC#C[Si](O[C@H](CC)c1cn(Cc2ccccc2)nn1)(C(C)C)C(C)C	0.0541
CC1=C([C@H](O)CCc2ccccc2)[C@H](CO)n2c(=O)n(-c3ccccc3)c(=O)n2C1	-0.202
O=C1NC(=O)C2C1C=CC(C(O)c1ccc([N+](=O)[O-])cc1)N2Nc1ccccn1 (stereo not drawn)	-0.0059

Turning now to a further compound:
Reported composite z-score, compound COc1ccc(C(O)C2C=CC3C(=O)NC(=O)C3N2Nc2ccc(Cl)cc2Cl)c2ccccc12 (stereo not drawn) : ____
-0.0757

###

assay.method.text: basal CRE-LacZ reporter activity in PC12 – cell-based, unstimulated, primary screen (AID 1145)
applied.conditions: no forskolin, luminescence, 4.5 h, higher = more signal, called active from +8 up or from −8 down
reported.metric: z-score
Lab note: write the figure by itself, no unit.

molecule	z-score
CCCCCC1=C2CNC(CC(C)C)(C(=O)OC)C=C2C(C)C1=O (stereo not drawn)	0.0041
C=C(/C(=C/C[C@@H](OC(C)=O)c1cccc(OCCO)c1)c1cnc2ccccc2c1)C(C)C	0.769
COC(=O)[C@]1(Cc2ccccc2)N=C(c2ccc(OCCCO)cc2)O[C@@H]1c1ccccc1CN=[N+]=[N-]	2.31
Cc1ccc(N2C(=O)c3ccccc3[C@](C)(C(=O)NCCCN(C)C)[C@@H]2c2ccc(CO)cc2)nc1	0.0279
COC(=O)[C@@]1(Cc2ccc(F)cc2)[C@H]2c3cc(C(=O)N4CCCC4)n(Cc4ccccn4)c3C[C@H]2CN1C(=O)c1ccccc1	0.966
CC1CC/C=C\[C@H]2OC34C=CCN(c5ccc(Cl)cc5)C(=O)[C@H]3N(CCCCCCO)C(=O)[C@]4(C)C2C(=O)O1 (stereo partly drawn)	1
CCCNC(=O)[C@@]1(c2ccc([N+](=O)[O-])cc2)CC(=O)N(C(C)C)[C@@H]1c1ccc(CO)cc1	0.558

Turning now to a further molecule:
Reported z-score, molecule CCCc1cc2c(n1CCc1ccc(Cl)cc1)C(C)C1CN(C(=O)c3ccccc3)C(C)(C(=O)OC)C21 (stereo not drawn) : ____
1.16

###

subject.of.test: Left-right determination factor 2 (Homo sapiens)
assay.method.text: small molecules binding LEFTY2 protein – biochemical, small-molecule microarray, 635 nm fluorescence scan, primary screen (AID 1110)
applied.conditions: higher = more signal
reported.metric: composite z-score
Lab note: write the figure by itself, no unit.

Examples from the recorded data:
molecule	reported.metric	measured.result
CCOC(=O)C[C@H]1[C@H](OC(=O)Cc2ccc3c(c2)OCO3)[C@@H](NC(=O)Cc2ccc(OC)cc2)c2cc(OCCCO)ccc2N1C(=O)Cc1ccc(OC)cc1	composite z-score	-0.261
C=CCNC(=O)[C@@H]1[C@H]2C(=O)O[C@H](c3ccccc3)[C@H](c3ccccc3)N2[C@H](c2ccc(OCCO)cc2)[C@@]12C(=O)Nc1ccc(C#CC3(O)CCCCCC3)cc12	composite z-score	0.367
CCCNC(=O)[C@@]1(c2ccc([N+](=O)[O-])cc2)CC(=O)N(C(C)C)[C@@H]1c1ccc(CO)cc1	composite z-score	-0.649
C[N+](C)(C)CCCC[C@@H]1NC(=O)[C@H]2C[C@@H](C(=O)NCCCCCNC(=O)CS)[C@@H](c3cccc(OCCO)c3)N2C1=O	composite z-score	-0.259
C=CCC(OC(C)=O)[C@@H]1[C@@H](N(Cc2cccc3ccccc23)C(=O)c2ccc(-c3ccccc3)cc2)c2cc(OCCCO)ccc2N1C(=O)Cc1ccc2ccccc2c1 (some centres undefined)	composite z-score	-0.181

Turning now to a further molecule:
State its composite z-score on Left-right determination factor 2 (Homo sapiens): Cc1ccc(N2C(=O)c3ccccc3[C@](C)(C(=O)NCCCN(C)C)[C@@H]2c2ccc(CO)cc2)nc1
-1.05

###

System: Human papillomavirus type 1a protein E7 (residues 44-93)
assay.method.text: small molecules binding HPV E7 44-93 – biochemical, small-molecule microarray, residues 44-93, 635 nm fluorescence, primary screen (AID 1108);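 further: E7 fragment applied at 1 µg/mL in TBST for 1 h at 4 C; score combines spot fluorescence with its signal to noise ratio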
applied.conditions: fluorescence 635 nm, higher = more signal
Parameter threshold = 0.3. Response is Yes when composite z-score meets or exceeds it, else No.

Example entries and their recorded answers appear below.
compound	class.assignment
COCCOC(=O)N1C(=O)[C@@]2(c3cc(C#CC4(O)CCCCCC4)ccc31)[C@H](c1ccc(O)cc1)N1[C@H](c3ccccc3)[C@H](c3ccccc3)OC(=O)[C@H]1[C@@H]2C(=O)N1CCCCCCC1	No
C=CCOC(=O)[C@H]1[C@@H]2C(=O)O[C@@H](c3ccccc3)[C@@H](c3ccccc3)N2[C@@H](c2ccc(OCCOC(=O)[C@@H]3C[C@@H]4C(=O)N[C@@H](CCCC[N+](C)(C)C)C(=O)N4[C@@H]3c3ccc(O)cc3)cc2)[C@]12C(=O)Nc1ccc(I)cc12	Yes
CC1CC/C=C\[C@H]2OC34C=CCN(c5ccc6ccccc6c5)C(=O)[C@H]3N(C(C)CO)C(=O)[C@@H]4C2C(=O)O1 (some centres not stated)	No
NC(=O)N1C(=O)C2C(C1=O)C1C=C(CCCO)C2C(c2ccc(CN3CCCC3)cc2)N1Cc1cc2c(cc1Br)OCO2 (configuration not stated)	No

Hello, I need to know if CCN(CC)c1ccc(N2CC=CC34O[C@@H]5C=CCCOC(=O)C5[C@H]3C(=O)N(C(C)CO)[C@@H]4C2=O)cc1 (some centres not stated) has measured composite z-score not below 0.3. Thanks!
No

Next entry: C=CCC(OC(C)=O)[C@@H]1[C@@H](N(Cc2ccc(-c3cccc(C(F)(F)F)c3)o2)C(=O)c2ccc(-c3ccccc3)cc2)c2cc(OCCCO)ccc2N1C(=O)c1ccc2ccccc2c1 (some centres not stated)
No

Next entry: C=C(CCCC)/C(=C/C[C@@H](OC(C)=O)c1ccc(CO)o1)c1cnc2ccccc2c1
Yes
